Listed here are binders together with their documented EC50.
ASSAYED_SYSTEM: full-length beta-Catenin (Uniprot ID P35222) (Homo sapiens (Human)) (UniProt P35222)
Sequence (P35222 2-781 limits assumed): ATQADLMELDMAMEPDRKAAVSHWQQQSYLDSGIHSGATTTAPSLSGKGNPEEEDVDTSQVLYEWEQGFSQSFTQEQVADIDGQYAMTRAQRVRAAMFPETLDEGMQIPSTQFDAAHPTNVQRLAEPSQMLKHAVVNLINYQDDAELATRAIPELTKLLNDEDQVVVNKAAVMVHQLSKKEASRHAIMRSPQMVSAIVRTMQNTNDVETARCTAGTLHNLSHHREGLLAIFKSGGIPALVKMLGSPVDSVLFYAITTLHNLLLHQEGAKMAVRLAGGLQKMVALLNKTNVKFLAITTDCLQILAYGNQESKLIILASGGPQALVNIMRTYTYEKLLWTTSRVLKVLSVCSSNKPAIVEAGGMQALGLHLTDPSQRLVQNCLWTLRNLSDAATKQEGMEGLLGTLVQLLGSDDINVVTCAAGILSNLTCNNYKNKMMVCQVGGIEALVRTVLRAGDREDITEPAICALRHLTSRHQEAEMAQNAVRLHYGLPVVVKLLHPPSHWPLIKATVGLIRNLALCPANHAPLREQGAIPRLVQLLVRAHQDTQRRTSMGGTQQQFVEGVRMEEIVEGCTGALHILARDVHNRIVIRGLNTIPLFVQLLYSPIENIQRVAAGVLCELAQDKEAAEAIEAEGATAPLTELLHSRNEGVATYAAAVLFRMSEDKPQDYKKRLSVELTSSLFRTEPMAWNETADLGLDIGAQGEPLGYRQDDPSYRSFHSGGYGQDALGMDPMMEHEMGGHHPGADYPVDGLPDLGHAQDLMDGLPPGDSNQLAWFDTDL
ASSAY: fluorescence polarization competition; 10 nM full-length beta-catenin + 10 nM 5FAM-TCF4 10-53 as competitor probe
Starred links: 1 amine or outer side, 2 acyl side, 3 side chain; linkers in the order of their positions; H or OH if unused. Positions of bridges follow the written chain, without caps; N, C: chain ends. Non-standard residues stand in square brackets, D forms with d. Primed or numbered codes have the meaning given here. PyrS2″ = (S)-3-amino-1-((pent-4-en-1-yloxy)carbonyl)pyrrolidine-3-carboxylic acid (stapling residue), C=CCCCOC(=O)N1CC[C@@](N[*:1])(C(=O)[*:2])C1; B5(5) = 2,2-bis(4-pentenyl)glycine, 2-amino-2-(pent-4-en-1-yl)hept-6-enoic acid (stitching residue), C=CCCCC(CCCC=C)(N[*:1])C(=O)[*:2]; Phe(2-Cl) = N[C@@H](Cc1ccccc1Cl)C(=O)O; Bta = N[C@@H](Cc1csc2ccccc12)C(=O)O; αAllylPro = C=CC[C@@]1(C(=O)O)CCCN1; tBuAla = CC(C)(C)C[C@H](N)C(=O)O; Cha = N[C@@H](CC1CCCCC1)C(=O)O

Examples with their reported EC50 follow.
| BINDER | EC50 |
| --- | --- |
| Ac-[αAllylPro]D[tBuAla][B5(5)]EDAAFN[PyrS2″][Phe(2-Cl)][Bta][dT]-NH2 (staple 1-4, 4-11) [I-1030] | 507 nM |
| Ac-[αAllylPro]D[Cha][B5(5)]DDAAFT[PyrS2″][Phe(2-Cl)][Bta]Q-NH2 (staple 1-4, 4-11) [I-1042] | 5 nM |
| Ac-[αAllylPro]D[Cha][B5(5)]DDAAFS[PyrS2″][Phe(2-Cl)][Bta]Q-NH2 (staple 1-4, 4-11) [I-1044] | 5 nM |

Q) Name the recorded EC50 for Ac-[αAllylPro]D[tBuAla][B5(5)]DEAAFL[PyrS2″][Phe(2-Cl)][Bta][dT]-NH2 (staple 1-4, 4-11) [I-1039] .
A) 57 nM

Q) Request: Ac-[αAllylPro]D[tBuAla][B5(5)]DDAAFL[PyrS2″][Phe(2-Cl)][Bta][dT]-NH2 (staple 1-4, 4-11) [I-1035]
A) 21 nM
